Data origin: the supplement of paper PMC9732359

Experiment: protein stability index of a GFP-peptide fusion (yeast GPS) (PSI 1-4); higher = more stable; sorted into four equal gates, so the index is relative within each strain
Settings: doa10∆
Measurement label: protein stability index
Give a plain numeric answer without units written out.

In: Give its protein stability index value. Item: TSPEKKDGGDKPPSSAF [YAR002W/NUP60]
Out: 3.42

In: Give its protein stability index value. Item: EETDEVSSESSDEAIIP [SIR3]
Out: 2.93

In: Give its protein stability index value. Item: ITNTDETITTKRVPNPN [SWP82]
Out: 3.09

In: Give its protein stability index value. Item: AKTLTYPEVVTPYNIDR [RPO21]
Out: 2.17

In: Give its protein stability index value. Item: RAVKEIKKFAKLHMGTE [RPL31B]
Out: 2.95

New cases:
In: Give its protein stability index value. Item: QHDKMVDKIFEKVNNNA [SWI1]
Out: 3.19

In: Give its protein stability index value. Item: PVKLDENSANSTVASAL [SIR4]
Out: 2.9

In: Give its protein stability index value. Item: LELMDSKKTGQFNAQGV [POP1]
Out: 3.54

* * *

Experiment: protein stability index of a GFP-peptide fusion (yeast GPS) (PSI 1-4); higher = more stable; sorted into four equal gates, so the index is relative within each strain
Conditions: doa10∆
# reported protein stability index; entries follow
Give a plain numeric answer without units written out.

In: Give its protein stability index value. Item: DDKDCTIKISTNDDSIK [RGR1]
Out: 2.89

New cases:
In: Give its protein stability index value. Item: HQGSGGSVMSASVEIVF [SMC3]
Out: 2.05

In: Give its protein stability index value. Item: SHTSLVKIGKFIPHGLK [SRB8]
Out: 1.71

* * *

Assay: protein stability index of a GFP-peptide fusion (yeast GPS) (PSI 1-4); higher = more stable; sorted into four equal gates, so the index is relative within each strain
Details: pdr5∆
# reported protein stability index; entries follow
Give a plain numeric answer without units written out.

In: Give its protein stability index value. Item: PNSNVELAGGNASLTIE [SMC1]
Out: 3.06

Consider now this further sequence.
In: Give its protein stability index value. Item: SHIESDSTSHNNGSSDK [MED1]
Out: 2.94

* * *

# reported protein stability index; entries follow
Assay: protein stability index of a GFP-peptide fusion (yeast GPS) (PSI 1-4); higher = more stable; sorted into four equal gates, so the index is relative within each strain
Conditions: pdr5∆

// worked examples, protein stability index included
In: Give its protein stability index value. Item: RNKSAANNDINSLLSNF [YDL088C/ASM4]
Out: 3.07

In: Give its protein stability index value. Item: ASAKSVRSGVSKSAPSK [YAR002W/NUP60]
Out: 2.92

Consider now this further sequence.
In: Give its protein stability index value. Item: KCLNYRNVNWIERLTKR [ITC1]
Out: 3.07

* * *

# reported protein stability index; entries follow
Assay: protein stability index of a GFP-peptide fusion (yeast GPS) (PSI 1-4); higher = more stable; sorted into four equal gates, so the index is relative within each strain
Conditions: pdr5∆
Give a plain numeric answer without units written out.

In: Give its protein stability index value. Item: NEGVPSPMLSISNLTQE [FAS1]
Out: 2.94

In: Give its protein stability index value. Item: KKPSPQTIPIQIYGFEG [YGR119C/NUP57]
Out: 3.06

In: Give its protein stability index value. Item: KFPATNVTTILDEIFSG [ECM29]
Out: 2.93

New cases:
In: Give its protein stability index value. Item: NVPGVETANVASLNLLQ [RPL4A]
Out: 3.05

In: Give its protein stability index value. Item: LLNDECTESTRENALYD [SNF2]
Out: 3.07

In: Give its protein stability index value. Item: PVRPVRVRHEDVETVKR [RPC53]
Out: 2.97
